- EXPERIMENTAL_DETAILS: Pharmacokinetics (plasma exposure) after i.v. or p.o. dosing, non-compartmental analysis
- Assay type: in vivo, male Wistar rats
- RUN_CONDITIONS: male, Wistar, rat, plasma, iv, 3.56 mg/kg, i.v., 3.56 mg/kg, DMSO/PEG400/PBS 1X (5%/30%/65%), read-out: Tmax (converted)
TEST_READOUT: Tmax (min)
State just the number; it will be interpreted in min.

Can you look up the measured Tmax of O=C(O)CC/C=C\C[C@@H]1CO[C@H](c2ccccc2Cl)O[C@@H]1c1ccccc1O [drawing 18] for me? 5

----------
- EXPERIMENTAL_DETAILS: Pharmacokinetics (plasma exposure) after i.v. or p.o. dosing, non-compartmental analysis
- Type: in vivo, male Wistar rats
- RUN_CONDITIONS: male, Wistar, rat, plasma, iv, 3.56 mg/kg, i.v., 3.56 mg/kg, DMSO/PEG400/PBS 1X (5%/30%/65%), read-out: Terminal Half-life elimination, t½z
TEST_READOUT: half-life (min)
State just the number; it will be interpreted in min.

Can you look up the measured half-life of O=C(O)CC/C=C\C[C@@H]1CO[C@H](c2ccccc2Cl)O[C@@H]1c1ccccc1O [drawing 18] for me? 46

Origin of the recorded values: patent US8486994B2
